In this section we review reported inhibition values for a set of compounds.
Target: (Lyso)-N-acylphosphatidylethanolamine lipase (Mus musculus)
Test: ABHD4 inhibitors, primary screen, biochemical, fluorescence polarization, mouse (AID 720543);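 further: 0% = plate median of compound wells and 100% = S159A mutant with DMSO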
Settings: purified mABHD4, FP-Rh probe fluorescence polarization; at 8.92 µM; hits give high values
Screen size: about 370,000 compounds; about 2,000 (0.54%) were called active. Only a selection was taken, and actives are over-represented in it overall.
quantity-kind: inhibition (%)

| compound | value-measured |
| --- | --- |
| CCOc1[nH]n(-c2ccc(Cl)cc2)c(=O)c1C=Nc1ccc(O)cc1 | 37.3 |
| CC(C)(C)NC(=O)NC(=O)COC(=O)Cn1c(C(F)(F)F)nc2ccccc21 | 1.11 |
| CC(C)CNC(=O)OCc1cn(Cc2ccc(F)cc2)nn1 | -1.25 |
| Cc1ccc(S(=O)(=O)N(C)C)cc1NC(=O)c1n[nH]c(=O)c2ccccc12 | -9.11 |
| COc1ccc(Br)cc1CN(C)CC(=O)Nc1cc(Cl)cc(Cl)c1 | 6.47 |
| C=CCN1C(C(=O)OC)CN(Cc2cn(Cc3ccccc3)nn2)CCS1(=O)=O (configuration not stated) | -0.95 |
| Oc1c(Cl)cc(Cl)c(Cl)c1Cc1c(O)c(Cl)cc(Cl)c1Cl | -117 |
| CCCC1CCC2(CCCN2CCOC(=O)NCc2ccccc2)CC1 (configuration not stated) | -7.41 |
| Cc1ccc(Nc2ccccc2N)cc1 | 28.9 |
| Cc1cccc(-n2cnc(C(=O)Nc3cccnc3)c2)n1 | -2.09 |
| COc1cc(/C=C/C(=O)O)cc(S(=O)(=O)Nc2ccccc2C(=O)NCCc2ccccc2)c1OC | 6.19 |
| O=C1[C@@H](c2ccccc2)[C@@H](c2ccccc2)N1c1ccccc1 | -3.86 |
| Cc1ccccc1CS(=O)(=O)Cc1ccc(C(=O)Nc2ccc(Cl)cc2)o1 | 1.54 |
| CCOc1ccc(Oc2c(Cl)cnn(-c3ccc(C)cc3)c2=O)cc1 | 5.6 |
| O=C(Nc1cc(S(=O)(=O)Nc2ccc(Cl)cc2)ccc1O)c1ccc(F)cc1F | -6.3 |
| O=C(NCC1COc2ccccc2O1)c1ccc(NC(=O)c2cc(F)ccc2F)cc1 (configuration not stated) | 5.07 |
| Brc1c(CSc2nncc3ccccc23)nc2ccccn12 | -3.21 |
| O=C(c1ccc2c(c1)N(Cc1ccc(F)cc1)C(=O)CS2)N1CCOCC1 | -7.7 |
| COC(=O)C1CN(CC(C)C)CCS(=O)(=O)N1Cc1ccc(C)cc1 (configuration not stated) | 2.37 |
| CCOC(=O)[C@]12CCCC3=C1N(CCC3)C(=O)[C@@H](CC(=O)NCC13CC4CC(CC(C4)C1)C3)C2 | 3.95 |
| Cc1cc(=O)[nH]c(SCC(=O)Nc2ccc(F)cc2F)n1 | 2.2 |
| Nc1ccc(Nc2ccccc2)cc1 | 46.5 |
| Clc1ccccc1CSc1nnc(-c2ccco2)c(-c2ccco2)n1 | 38.9 |
| Clc1ccc(-n2c(SC/C=C/c3ccccc3)nnc2-c2ccco2)cc1 | -10.5 |
| O=C(N1CCOCC1)N1CC[C@H]2[C@H](CCCN2Cc2ccc(F)cc2)C1 | 4.72 |
| Cc1ccc(NS(=O)(=O)c2ccc(N/N=C/c3ccccc3OCC(=O)O)c([N+](=O)[O-])c2)c(C)c1 | 52.1 |
| Cc1ccc(NS(=O)(=O)c2ccc3c(c2)n(C)c(=O)c(=O)n3C)c(C)c1 | -1.8 |
| CCOC(=O)C1CCN(C(=O)C2(NC(=O)Nc3cccc(F)c3)CCCCC2)CC1 | -0.97 |
| Clc1ccc2nc(CSc3ccccc3)cn2c1 | 0.19 |
| O=C(NNC(=S)Nc1ccccc1)c1cccc(S(=O)(=O)N2CCOCC2)c1 | 1.73 |
| NC(N)=N/N=C/c1ccc(OCc2ccc(Cl)cc2Cl)cc1 | 31.7 |
| COc1ccccc1Cc1c(-c2ccc(Cl)cc2)nc2ccc(Cl)cn12 | -4.24 |
| CC(C)(C)OC(=O)NCCc1ccccc1/C=C/S(=O)(=O)NCc1ccc(F)cc1 | 14.8 |
| C#CCCN([C@H](C(=O)OC)C(C)C)S(=O)(=O)c1ccc(F)cc1Br | -7.15 |
| COc1cccc(CNC(=O)[C@H]2CCCN2C(=O)[C@H]2CCCN2C(=O)c2cc(F)cc(F)c2)c1 | 1.83 |
| COc1ccc(-n2c(SCC(=O)NC3CCCC3)nnc2-c2ccncc2)cc1 | 3.8 |
| Cc1cccc(NC(=O)C[C@H]2CC[C@H]3[C@@H](COc4ccc(NC(=O)Nc5ccccc5)cc4C(=O)N3C)O2)c1 | 7.9 |
| O=C(O)c1ccccc1/C=N/Nc1ccc(S(=O)(=O)Nc2ccc(Cl)cc2)cc1[N+](=O)[O-] | 43.8 |
| O=c1cnnc(Nc2ccccc2)[nH]1 | 4.6 |
| Cc1ccc(OCCOCCOc2ccc(Br)cc2/C=N\NC(=O)c2ccncc2)cc1 | -84.8 |
| CN1CCN(C(=O)C(=O)c2cn(CC(=O)N3CCCC3)c3ccccc23)CC1 | 8.39 |
| O=C(CSc1nnc(-c2ccccn2)n1-c1ccc(Cl)cc1)Nc1ccccc1-c1ccccc1 | -9.15 |

---

In this section we review reported inhibition values for a set of compounds.
Biological target: (Lyso)-N-acylphosphatidylethanolamine lipase (Mus musculus)
Assay: ABHD4 inhibitors, primary screen, biochemical, fluorescence polarization, mouse (AID 720543);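 further: 0% = plate median of compound wells and 100% = S159A mutant with DMSO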
Conditions: purified mABHD4, FP-Rh probe fluorescence polarization; at 8.92 µM; hits give high values
Out of some 370,000 compounds screened, about 2,000 (0.54%) were called active. The full list was thinned out, with actives kept by preference.

| compound | inhibition |
| --- | --- |
| COC(=O)c1cccc(Cn2ccc3ccc(-c4ccc5ccn(C(=O)C6CCCCC6)c5c4)cc32)c1 | 3.18% (inactive) |
| Oc1ccc(/C=N/Nc2ccc(C(F)(F)F)cn2)cc1O | 36.2% (active) |
| Cc1nnsc1C(=O)N/N=C/c1cccc(C(F)(F)F)c1 | 3.14% (inactive) |
| CC(NC(=O)C1CCCN(S(=O)(=O)c2ccc(-n3cnnn3)cc2)C1)c1ccc(F)cc1 (centres undefined) | -0.78% (inactive) |
| COC(=O)[C@]12C[C@H](CC(=O)NCc3ccccc3)C(=O)N(Cc3ccccc3)C1=C[C@H](COCc1ccccc1)O[C@@H]2C | -5.73% (inactive) |
| Nc1nc2c(ncn2[C@@H]2O[C@H](C(=O)N[C@@H](Cc3ccccc3)C(=O)NCc3ccccc3)[C@@H](O)[C@H]2O)c(=O)[nH]1 | 1.72% (inactive) |
| CC(=O)Nc1ccc(NC(=O)CSC2=NS(=O)(=O)c3ccccc3N2)cc1 | 0.67% (inactive) |
| C/C(=N\NC(=O)c1ccc(C)cc1)C1C(=O)c2ccccc2C1=O | 32.6% (active) |
| C=CCN(Cc1ccc2c(c1)OCO2)C(C#CC1CC1)C(C)(C)C (centres undefined) | 7.34% (inactive) |

---

Biological target: (Lyso)-N-acylphosphatidylethanolamine lipase (Mus musculus)
Test: ABHD4 inhibitors, primary screen, biochemical, fluorescence polarization, mouse (AID 720543);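 further: 0% = plate median of compound wells and 100% = S159A mutant with DMSO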
Conditions: purified mABHD4, FP-Rh probe fluorescence polarization; at 8.92 µM; hits give high values
Hit rate of the full screen: of about 370,000 compounds, about 2,000 (0.54%) were called active. The sample holds actives, similar compounds and a random draw of the others, so the mix is not that of the screen.
In this section we review reported inhibition values for a set of compounds.

| smiles-representation | inhibition, % |
| --- | --- |
| COCCNC(=S)Nc1cc(S(=O)(=O)N2CCOCC2)ccc1N1CCCCC1 | 1.6 |
| CCC1(CC)NC(=O)N(CC(=O)OCC(=O)Nc2ccc(C(F)(F)F)cc2)C1=O | -3.48 |
| Oc1ccc2ccccc2c1N=Nc1nccs1 | 61.8 |
| COC(=O)[C@]12C[C@H](CC(=O)NCCc3ccccc3OC)C(=O)N(Cc3ccco3)C1=C[C@H](C(C)C)O[C@@H]2C1CC1 | -4.62 |
| O=C(NCc1ccccc1)[C@@H]1CCCN1C(=O)[C@@H](NS(=O)(=O)c1ccc(F)cc1F)C1CCCCC1 | -7.63 |
| COC(=O)c1ccc(CN(c2ccccc2OC)S(=O)(=O)c2cccs2)o1 | 4.33 |
| COC(=O)c1cccc(Cn2ccc3ccc(-c4ccc5ccn(C(=O)c6ccccc6C)c5c4)cc32)c1 | 1.96 |
| CC(=O)N(c1ccc2oc(=O)sc2c1)S(=O)(=O)c1ccc(C)cc1 | 7.97 |
| COC(=O)C[C@@H]1CC[C@@H]2[C@@H](COc3ccc(NC(=O)Nc4ccc(F)c(F)c4)cc3C(=O)N2C)O1 | 4.06 |

---

Biological target: (Lyso)-N-acylphosphatidylethanolamine lipase (Mus musculus)
Experiment: ABHD4 inhibitors, primary screen, biochemical, fluorescence polarization, mouse (AID 720543);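 further: 0% = plate median of compound wells and 100% = S159A mutant with DMSO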
Conditions: purified mABHD4, FP-Rh probe fluorescence polarization; at 8.92 µM; hits give high values
Among all 370,000 compounds or so, about 2,000 (0.54%) were called active. The entries come from a sample that favours actives as a whole.
In this section we review reported inhibition values for a set of molecules.
quantity-kind: inhibition (%)

| molecule | system-under-test | value-measured |
| --- | --- | --- |
| O=C(CSc1nnc(-c2cccc(Cl)c2)n1Cc1ccco1)Nc1ccc(OCc2ccccc2)cc1 | (Lyso)-N-acylphosphatidylethanolamine lipase (Mus musculus) | 4.02 |
| COc1ccc(C2Nc3ccccc3C(=O)N2Cc2cccs2)cc1COc1c(C)cccc1C (centres undefined) | (Lyso)-N-acylphosphatidylethanolamine lipase (Mus musculus) | -15.8 |
| COC(=O)[C@H](C(C)C)N(CCc1cn(Cc2ccccc2)nn1)S(=O)(=O)c1ccc(F)cc1Br | (Lyso)-N-acylphosphatidylethanolamine lipase (Mus musculus) | -6.45 |
| COc1ccc(-c2ccccc2C2Cc3nnccc3CN2C(=O)Nc2ccccc2)cc1 (centres undefined) | (Lyso)-N-acylphosphatidylethanolamine lipase (Mus musculus) | -13 |
| Cc1cc(NS(=O)(=O)c2ccc(NC(=O)CSc3nnc(SCc4ccc(F)cc4)s3)cc2)nc(C)n1 | (Lyso)-N-acylphosphatidylethanolamine lipase (Mus musculus) | -21.5 |
| CC1(C)OC(=O)C(=CNC(CO)C(=O)O)C(=O)O1 (centres undefined) | (Lyso)-N-acylphosphatidylethanolamine lipase (Mus musculus) | 5.15 |
| CC1CCN(c2ccc(S(=O)(=O)Nc3cc(C(=O)O)cc(C(=O)O)c3)cc2[N+](=O)[O-])CC1 | (Lyso)-N-acylphosphatidylethanolamine lipase (Mus musculus) | -0.48 |
| Nc1ncnc2c1ncn2[C@@H]1O[C@H](CNS(=O)(=O)c2ccc(-c3ccno3)s2)[C@@H](O)[C@H]1O | (Lyso)-N-acylphosphatidylethanolamine lipase (Mus musculus) | -3.46 |
| CC1CCN(c2ccc(C(=O)O)cc2NS(=O)(=O)c2ccc(Br)s2)CC1 | (Lyso)-N-acylphosphatidylethanolamine lipase (Mus musculus) | 40.3 |
